Every entry's value here was drawn from patent US9422240B2.

# system_tested: human PHD2 (Homo sapiens (Human))
# method_description: Test 2: human PHD2 inhibitory activity, fluorescence polarization assay of HIF-1α peptide proline hydroxylation
# Format: biochemical
# condition_notes: test compound's concentration 1 μM; Test 2, fluorescence polarization assay; read-out: Percent inhibition (% at 1 μM)
assay_readout: inhibition at 1 µM (%)
Supply the numeric figure in %, leaving out any unit text.

Sample records with inhibition at 1 µM:
compound: O=C(O)CNC(=O)C1=C(O)CC2(CCN(C(=O)c3ccccc3)CC2)N(Cc2ccc(-c3ccccc3)cc2)C1=O
assay_readout: inhibition at 1 µM
readout_value: 97

compound: O=C(O)CNC(=O)C1=C(O)CC2(CCC2)N(Cc2ccc(Br)cc2)C1=O
assay_readout: inhibition at 1 µM
readout_value: 83

compound: CC1(C)CC(O)=C(C(=O)NCC(=O)O)C(=O)N1CC1CC(c2ccccc2)C1 (stereo not shown)
assay_readout: inhibition at 1 µM
readout_value: 60

compound: Cc1ccc(Oc2ncc(CN3CCC(O)=C(C(=O)NCC(=O)O)C3=O)cn2)cc1
assay_readout: inhibition at 1 µM
readout_value: 91

Form field - read-out: inhibition at 1 µM; system: human PHD2 (Homo sapiens (Human)); submitted item: "O=C(O)CNC(=O)C1=C(O)CCN(Cc2ccc(-c3ccc(C(F)(F)F)cc3)cn2)C1=O"
96

Form field - read-out: inhibition at 1 µM; system: human PHD2 (Homo sapiens (Human)); submitted item: Cc1ccc(CN2CC(C)C(O)=C(C(=O)NCC(=O)O)C2=O)cc1 (stereo not shown)
66

###

In this section, each of the compounds is paired with its reported inhibition at 1 µM.
# system_tested: human PHD2 (Homo sapiens (Human), UniProt Q9GZT9)
# Sequence (Q9GZT9 whole entry): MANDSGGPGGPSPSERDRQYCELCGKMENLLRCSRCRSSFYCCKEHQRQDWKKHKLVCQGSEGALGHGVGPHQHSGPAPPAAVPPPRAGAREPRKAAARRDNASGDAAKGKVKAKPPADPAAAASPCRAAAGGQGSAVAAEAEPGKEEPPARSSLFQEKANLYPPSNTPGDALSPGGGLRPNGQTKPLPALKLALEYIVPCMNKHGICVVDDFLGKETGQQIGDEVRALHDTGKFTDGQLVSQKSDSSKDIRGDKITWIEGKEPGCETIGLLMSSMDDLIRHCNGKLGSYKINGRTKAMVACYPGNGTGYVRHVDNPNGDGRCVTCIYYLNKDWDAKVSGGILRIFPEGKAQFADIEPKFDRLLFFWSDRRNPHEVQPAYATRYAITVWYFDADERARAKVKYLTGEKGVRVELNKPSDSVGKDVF
# method_description: Test 2: human PHD2 inhibitory activity, fluorescence polarization assay of HIF-1α peptide proline hydroxylation
# Format: biochemical
# condition_notes: test compound's concentration 1 μM; Test 2, fluorescence polarization assay; read-out: Percent inhibition (% at 1 μM)
Supply the numeric figure in %, leaving out any unit text.

compound: O=C(O)CNC(=O)C1=C(O)CCN(Cc2ccc(OCCC(F)(F)F)c(F)c2)C1=O
assay_readout: inhibition at 1 µM
value_unit: %
readout_value: 82
--
compound: O=C(O)CNC(=O)C1=C(O)CC2(CCCCC2)CN(Cc2ccc(-c3ccccc3)cc2)C1=O
assay_readout: inhibition at 1 µM
value_unit: %
readout_value: 86
--
compound: CC1(C)CC(O)=C(C(=O)NCC(=O)O)C(=O)N1Cc1csc(-c2ccccc2)n1
assay_readout: inhibition at 1 µM
value_unit: %
readout_value: 77
--
compound: O=C(O)CNC(=O)C1=C(O)CC(Cc2ccccc2)N(Cc2ccc(C(F)(F)F)cc2)C1=O (stereo not shown)
assay_readout: inhibition at 1 µM
value_unit: %
readout_value: 83
--
compound: Cc1ccc(COc2ccc(CN3CCC(O)=C(C(=O)NCC(=O)O)C3=O)cn2)cc1
assay_readout: inhibition at 1 µM
value_unit: %
readout_value: 98
--
compound: O=C(O)CNC(=O)C1=C(O)CCN(Cc2c(F)cc(C(F)(F)F)cc2F)C1=O
assay_readout: inhibition at 1 µM
value_unit: %
readout_value: 78

Form field - read-out: inhibition at 1 µM; system: human PHD2 (Homo sapiens (Human), UniProt Q9GZT9); submitted item: "Cc1ccccc1-n1ncc(CN2CCC(O)=C(C(=O)NCC(=O)O)C2=O)c1C"
83

Form field - read-out: inhibition at 1 µM; system: human PHD2 (Homo sapiens (Human), UniProt Q9GZT9); submitted item: "CS(=O)(=O)c1ccc(-c2ccc(CN3CCC(O)=C(C(=O)NCC(=O)O)C3=O)cc2)cn1"
92

Form field - read-out: inhibition at 1 µM; system: human PHD2 (Homo sapiens (Human), UniProt Q9GZT9); submitted item: "O=C(O)CNC(=O)C1=C(O)C2(CCC2)CN(Cc2ccc(-c3ccccn3)cc2)C1=O"
83

Form field - read-out: inhibition at 1 µM; system: human PHD2 (Homo sapiens (Human), UniProt Q9GZT9); submitted item: "O=C(O)CNC(=O)C1=C(O)C2(CC2)CN(Cc2ccc(Cl)cc2)C1=O"
86

Form field - read-out: inhibition at 1 µM; system: human PHD2 (Homo sapiens (Human), UniProt Q9GZT9); submitted item: "O=C(O)CNC(=O)C1=C(O)CCN(CCc2ccc(-c3ccccc3)cc2)C1=O"
89

Form field - read-out: inhibition at 1 µM; system: human PHD2 (Homo sapiens (Human), UniProt Q9GZT9); submitted item: "O=C(O)CNC(=O)C1=C(O)C2(CC2)CN(Cc2ccc(C3CC3)cc2)C1=O"
90

Form field - read-out: inhibition at 1 µM; system: human PHD2 (Homo sapiens (Human), UniProt Q9GZT9); submitted item: "O=C(O)CNC(=O)C1=C(O)CC2(CCOCC2)N(Cc2ccc(-c3ccc(C(F)(F)F)cc3)cc2)C1=O"
94

Form field - read-out: inhibition at 1 µM; system: human PHD2 (Homo sapiens (Human), UniProt Q9GZT9); submitted item: "Cc1ccc(Oc2ncc(CN3CCC(O)=C(C(=O)NCC(=O)O)C3=O)cc2C)cn1"
91

Form field - read-out: inhibition at 1 µM; system: human PHD2 (Homo sapiens (Human), UniProt Q9GZT9); submitted item: "O=C(O)CNC(=O)C1=C(O)CCN(Cc2cccc(-c3ccccc3)c2)C1=O"
84

Form field - read-out: inhibition at 1 µM; system: human PHD2 (Homo sapiens (Human), UniProt Q9GZT9); submitted item: "CC(=O)c1ccc(-c2ccc(CN3CCC(O)=C(C(=O)NCC(=O)O)C3=O)cc2)cc1"
93

Form field - read-out: inhibition at 1 µM; system: human PHD2 (Homo sapiens (Human), UniProt Q9GZT9); submitted item: "COc1ccc(-c2ccc(CN3CC(C)(C)C(O)=C(C(=O)NCC(=O)O)C3=O)cc2)cn1"
88

Form field - read-out: inhibition at 1 µM; system: human PHD2 (Homo sapiens (Human), UniProt Q9GZT9); submitted item: "COc1ccc(-c2ccc(CN3CCC(O)=C(C(=O)NCC(=O)O)C3=O)nc2)cc1"
92

Form field - read-out: inhibition at 1 µM; system: human PHD2 (Homo sapiens (Human), UniProt Q9GZT9); submitted item: "CC1(C)CC(O)=C(C(=O)NCC(=O)O)C(=O)N1Cc1ccc(OC(F)(F)F)cc1"
63

Form field - read-out: inhibition at 1 µM; system: human PHD2 (Homo sapiens (Human), UniProt Q9GZT9); submitted item: "O=C(O)CNC(=O)C1=C(O)CCN(Cc2ccc(C(=O)NCC(=O)O)cc2)C1=O"
81

Form field - read-out: inhibition at 1 µM; system: human PHD2 (Homo sapiens (Human), UniProt Q9GZT9); submitted item: "O=C(O)CNC(=O)C1=C(O)CCN(Cc2ccc(Oc3ccc(F)cc3)nc2)C1=O"
98

Form field - read-out: inhibition at 1 µM; system: human PHD2 (Homo sapiens (Human), UniProt Q9GZT9); submitted item: "O=C(O)CNC(=O)C1=C(O)CCN(Cc2ccc3c(c2)CCCC3)C1=O"
84

Form field - read-out: inhibition at 1 µM; system: human PHD2 (Homo sapiens (Human), UniProt Q9GZT9); submitted item: O=C(O)CNC(=O)C1=C(O)C(c2ccccc2)N(Cc2ccc(-c3ccccc3)cc2)C1=O (stereo not shown)
71

Form field - read-out: inhibition at 1 µM; system: human PHD2 (Homo sapiens (Human), UniProt Q9GZT9); submitted item: CCC1CC(O)=C(C(=O)NCC(=O)O)C(=O)N1Cc1ccc(C(F)(F)F)cc1 (stereo not shown)
71

Form field - read-out: inhibition at 1 µM; system: human PHD2 (Homo sapiens (Human), UniProt Q9GZT9); submitted item: "CN(C)S(=O)(=O)c1ccc(-c2ccc(CN3CCC(O)=C(C(=O)NCC(=O)O)C3=O)cc2)cc1"
90

Form field - read-out: inhibition at 1 µM; system: human PHD2 (Homo sapiens (Human), UniProt Q9GZT9); submitted item: "O=C(O)CNC(=O)C1=C(O)CCN(CCCCCc2ccccc2)C1=O"
83

Form field - read-out: inhibition at 1 µM; system: human PHD2 (Homo sapiens (Human), UniProt Q9GZT9); submitted item: "Cn1nc2ccccc2c1COc1ccc(CN2CCC(O)=C(C(=O)NCC(=O)O)C2=O)cc1"
99

Form field - read-out: inhibition at 1 µM; system: human PHD2 (Homo sapiens (Human), UniProt Q9GZT9); submitted item: "O=C(O)CNC(=O)C1=C(O)C[C@@H](CO)N(Cc2ccc(OCC3CC3)cc2)C1=O"
44

Form field - read-out: inhibition at 1 µM; system: human PHD2 (Homo sapiens (Human), UniProt Q9GZT9); submitted item: "CN(C)CCCOc1ccc(CN2CCC(O)=C(C(=O)NCC(=O)O)C2=O)cc1"
51

Form field - read-out: inhibition at 1 µM; system: human PHD2 (Homo sapiens (Human), UniProt Q9GZT9); submitted item: CC1CN(CC2CCC(c3ccccc3)CC2)C(=O)C(C(=O)NCC(=O)O)=C1O (stereo not shown)
90
